All figures here come from patent US11225505B2.

Test system: Acinetobacter baumannii FADDI-AB030
test.protocol: microbe, parasite or virus in culture
Type: cell-based
condition.label: FADDI-AB030
Where a SMILES comes first, the peptide text is derived from it. Bridges are numbered along the chain shown (N, C = ends). [ ]: non-standard residue; d: D form. The star is where a group is joined. X37 = O=C(c1ccc(-c2ccc(Cl)cc2)s1)*; X9 = O=C(c1ccnc(C(F)(F)F)c1)*; X28 = Cc1cc(C(=O)*)cc(Cl)n1; X12 = CCc1ccc(C(=O)*)nc1; Dab = NCC[C@H](N)C(=O)O; Abu = CC[C@H](N)C(=O)O; Dap = NC[C@H](N)C(=O)O
Each item that follows carries a reported Minimum inhibitory concentration.

Examples with their reported Minimum inhibitory concentration follow.
[
  {
    "compound": "CC(C)C[C@H]1NC(=O)[C@H](CCN)NC(=O)[C@@H](NC(=O)[C@H](CN)NC(=O)[C@@H](NC(=O)[C@H](CCN)NC(=O)c2ccc(-c3ccc(Cl)cc3)s2)[C@@H](C)O)CCNC(=O)[C@H]([C@@H](C)O)NC(=O)[C@H](CCN)NC(=O)[C@H](CCN)NC(=O)[C@H]([C@@H](C)O)NC1=O [Compound 17] (X37-[Dab]T[Dap][Dab][Dab][dL]T[Dab][Dab]T; lactam 4-C)",
    "measured.target": "Acinetobacter baumannii FADDI-AB030",
    "test.result": "0.25 µg/mL"
  },
  {
    "compound": "CC[C@@H]1NC(=O)[C@@H](CC(C)C)NC(=O)[C@H](CCN)NC(=O)[C@@H](NC(=O)[C@H](CN)NC(=O)[C@@H](NC(=O)[C@H](CCN)NC(=O)c2cc(C)nc(Cl)c2)[C@@H](C)O)CCNC(=O)[C@H]([C@@H](C)O)NC(=O)[C@H](CCN)NC(=O)[C@H](CCN)NC1=O [Compound 39] (X28-[Dab]T[Dap][Dab][Dab][dL][Abu][Dab][Dab]T; lactam 4-C)",
    "measured.target": "Acinetobacter baumannii FADDI-AB030",
    "test.result": "0.5 µg/mL"
  }
]

Query: Look up and state reported Minimum inhibitory concentration for CC(C)C[C@H]1NC(=O)[C@H](CCN)NC(=O)[C@@H](NC(=O)[C@H](CN)NC(=O)[C@@H](NC(=O)[C@H](CCN)NC(=O)c2ccnc(C(F)(F)F)c2)[C@@H](C)O)CCNC(=O)[C@H]([C@@H](C)O)NC(=O)[C@H](CCN)NC(=O)[C@H](CCN)NC(=O)[C@H]([C@@H](C)O)NC1=O [Compound 32] (X9-[Dab]T[Dap][Dab][Dab][dL]T[Dab][Dab]T; lactam 4-C; N-terminus assumed)
Reply: 1 µg/mL

Query: State its Minimum inhibitory concentration: CCc1ccc(C(=O)N[C@@H](CCN)C(=O)N[C@H](C(=O)N[C@@H](CN)C(=O)N[C@H]2CCNC(=O)[C@H]([C@@H](C)O)NC(=O)[C@H](CCN)NC(=O)[C@H](CCN)NC(=O)[C@H](CC)NC(=O)[C@@H](CC(C)C)NC(=O)[C@H](CCN)NC2=O)[C@@H](C)O)nc1 [Compound 42] (X12-[Dab]T[Dap][Dab][Dab][dL][Abu][Dab][Dab]T; lactam 4-C)
Reply: <0.125 µg/mL
